# Assay Target: NR2B (Rattus norvegicus (Rat))
# Experiment Summary: NR2B rat cortical neuron calcium influx assay
# Condition Label: rat cortical neurons, glutamate and glycine stimulated calcium influx, 2 hours compound incubation
# Procedure: Example 1: NR2B Rat Cortical Neuron Calcium Influx Assay Protocol Embryonic day 18 timed pregnant Sprague Dawley rats were euthanized according to Institutional Animal Care and Use Committee (IACUC) protocol. […] Dissociated neurons were counted and plated into 384-well poly-D-lysine coated plates (Corning® BioCoat™) at a density of 20,000 cells/well in 30 μL of Neurobasal/B27 complete medium. […] Each data point was measured in duplicates. […]
Readout Type: IC50 (nM)
Answers are plain numbers, in nM.

Oc1ccc(C(O)CN2C[C@H]3C[C@H](Oc4ccccc4)C[C@@]3(O)C2)nc1 (single isomer, unassigned) [Example 7C]: 2.4
Oc1ccc(C(O)CN2C[C@H]3C[C@H](Oc4ccccc4F)C[C@@]3(O)C2)nc1 (single isomer, unassigned) [Example 1C]: 1.1

Field: IC50 (NR2B (Rattus norvegicus (Rat))). Entry: Oc1ccc(C(O)CN2C[C@H]3C[C@H](Oc4ccccc4)[C@H](O)[C@@]3(O)C2)nc1Cl (single isomer, unassigned) [Example 4D]
35

====

# Assay Target: hERG (Homo sapiens (Human))
# Sequence (Q12809 whole entry): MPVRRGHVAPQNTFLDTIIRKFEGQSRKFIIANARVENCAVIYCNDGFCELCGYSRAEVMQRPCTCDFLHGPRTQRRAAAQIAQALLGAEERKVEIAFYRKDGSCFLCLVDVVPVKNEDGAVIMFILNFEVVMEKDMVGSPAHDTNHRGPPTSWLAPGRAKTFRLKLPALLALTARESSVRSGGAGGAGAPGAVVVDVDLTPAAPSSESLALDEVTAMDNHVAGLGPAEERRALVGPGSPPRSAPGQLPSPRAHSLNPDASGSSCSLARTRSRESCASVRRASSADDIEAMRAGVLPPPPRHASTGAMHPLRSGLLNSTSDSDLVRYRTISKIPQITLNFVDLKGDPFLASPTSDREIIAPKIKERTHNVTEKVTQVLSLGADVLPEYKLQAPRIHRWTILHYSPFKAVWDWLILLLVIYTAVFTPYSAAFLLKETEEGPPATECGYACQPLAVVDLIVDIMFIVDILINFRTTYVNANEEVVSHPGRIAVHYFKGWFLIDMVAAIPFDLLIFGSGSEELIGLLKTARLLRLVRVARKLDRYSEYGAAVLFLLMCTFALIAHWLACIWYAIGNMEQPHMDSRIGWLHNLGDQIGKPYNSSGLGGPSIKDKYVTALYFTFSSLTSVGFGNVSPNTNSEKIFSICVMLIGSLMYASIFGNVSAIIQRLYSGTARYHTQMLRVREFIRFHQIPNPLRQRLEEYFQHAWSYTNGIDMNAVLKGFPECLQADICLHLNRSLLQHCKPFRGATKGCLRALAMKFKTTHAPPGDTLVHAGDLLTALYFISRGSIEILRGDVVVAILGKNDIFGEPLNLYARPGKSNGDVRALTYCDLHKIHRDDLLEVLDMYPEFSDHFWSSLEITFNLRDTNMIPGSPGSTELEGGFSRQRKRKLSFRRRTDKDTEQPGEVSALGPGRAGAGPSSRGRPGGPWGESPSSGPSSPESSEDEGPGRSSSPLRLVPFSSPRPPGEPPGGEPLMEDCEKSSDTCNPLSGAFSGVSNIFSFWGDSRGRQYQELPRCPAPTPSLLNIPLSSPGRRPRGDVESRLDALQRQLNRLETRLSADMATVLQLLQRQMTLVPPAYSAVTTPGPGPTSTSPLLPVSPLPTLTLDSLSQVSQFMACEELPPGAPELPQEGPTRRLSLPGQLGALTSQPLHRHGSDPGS
# Experiment Summary: hERG Qpatch assay
# Condition Label: hERG expressing CHO-K1 cells, automated patch clamp, tail current
Give measured IC50 for each item. Keep answers brief.
Answers are plain numbers, in µM.

Answered cases to consult:
Oc1ccc(C(O)CN2C[C@H]3C[C@H](Oc4ccccc4)C[C@H]3C2)nc1 (single isomer, unassigned) [Table 3 from WO 2016/049165 (isomer 1), reference compound]: 2
Oc1c(F)cc([C@H](O)CN2C[C@H]3C[C@H](Oc4ccccc4)C[C@@]3(O)C2)cc1F [Example 10D]: 25
Oc1c(F)cc([C@@H](O)CN2C[C@H]3C[C@H](Oc4ccccc4)C[C@@]3(O)C2)cc1F [Example 10C]: 22
Oc1ccc(C(O)CN2C[C@H]3C[C@H](Oc4ccccc4F)C[C@@]3(O)C2)nc1 (single isomer, unassigned) [Example 1B]: 14
Oc1c(F)cc(C(O)CN2C[C@H]3C[C@H](Oc4ccccc4)C[C@H]3C2)cc1F (mixture of isomers) [Mixture of two isomers at benzylic position, reference compound]: 2.8
Oc1ccc(C(O)CN2C[C@H]3C[C@H](Oc4ccccc4)C[C@@]3(O)C2)nc1 (single isomer, unassigned) [Example 7D]: 19
Oc1ccc(C(O)CN2C[C@H]3C[C@H](Oc4ccccc4)C[C@@]3(O)C2)nc1 (single isomer, unassigned) [Example 7C]: 28
Oc1ccc(C(O)CN2C[C@H]3C[C@H](Oc4ccccc4F)C[C@@]3(O)C2)nc1 (single isomer, unassigned) [Example 1C]: 22

# context switch: different molecule, same IC50
Field request: IC50 | item: Oc1ccc(C(O)CN2C[C@H]3C[C@H](Oc4ccccc4)C[C@H]3C2)nc1 (single isomer, unassigned) [Table 3 of WO 2016/049165 (isomer 2), reference compound]
2.7

====

# Assay Target: NR2B (Rattus norvegicus (Rat), UniProt Q00960)
# Sequence (Q00960 27-1482, other chains not shown): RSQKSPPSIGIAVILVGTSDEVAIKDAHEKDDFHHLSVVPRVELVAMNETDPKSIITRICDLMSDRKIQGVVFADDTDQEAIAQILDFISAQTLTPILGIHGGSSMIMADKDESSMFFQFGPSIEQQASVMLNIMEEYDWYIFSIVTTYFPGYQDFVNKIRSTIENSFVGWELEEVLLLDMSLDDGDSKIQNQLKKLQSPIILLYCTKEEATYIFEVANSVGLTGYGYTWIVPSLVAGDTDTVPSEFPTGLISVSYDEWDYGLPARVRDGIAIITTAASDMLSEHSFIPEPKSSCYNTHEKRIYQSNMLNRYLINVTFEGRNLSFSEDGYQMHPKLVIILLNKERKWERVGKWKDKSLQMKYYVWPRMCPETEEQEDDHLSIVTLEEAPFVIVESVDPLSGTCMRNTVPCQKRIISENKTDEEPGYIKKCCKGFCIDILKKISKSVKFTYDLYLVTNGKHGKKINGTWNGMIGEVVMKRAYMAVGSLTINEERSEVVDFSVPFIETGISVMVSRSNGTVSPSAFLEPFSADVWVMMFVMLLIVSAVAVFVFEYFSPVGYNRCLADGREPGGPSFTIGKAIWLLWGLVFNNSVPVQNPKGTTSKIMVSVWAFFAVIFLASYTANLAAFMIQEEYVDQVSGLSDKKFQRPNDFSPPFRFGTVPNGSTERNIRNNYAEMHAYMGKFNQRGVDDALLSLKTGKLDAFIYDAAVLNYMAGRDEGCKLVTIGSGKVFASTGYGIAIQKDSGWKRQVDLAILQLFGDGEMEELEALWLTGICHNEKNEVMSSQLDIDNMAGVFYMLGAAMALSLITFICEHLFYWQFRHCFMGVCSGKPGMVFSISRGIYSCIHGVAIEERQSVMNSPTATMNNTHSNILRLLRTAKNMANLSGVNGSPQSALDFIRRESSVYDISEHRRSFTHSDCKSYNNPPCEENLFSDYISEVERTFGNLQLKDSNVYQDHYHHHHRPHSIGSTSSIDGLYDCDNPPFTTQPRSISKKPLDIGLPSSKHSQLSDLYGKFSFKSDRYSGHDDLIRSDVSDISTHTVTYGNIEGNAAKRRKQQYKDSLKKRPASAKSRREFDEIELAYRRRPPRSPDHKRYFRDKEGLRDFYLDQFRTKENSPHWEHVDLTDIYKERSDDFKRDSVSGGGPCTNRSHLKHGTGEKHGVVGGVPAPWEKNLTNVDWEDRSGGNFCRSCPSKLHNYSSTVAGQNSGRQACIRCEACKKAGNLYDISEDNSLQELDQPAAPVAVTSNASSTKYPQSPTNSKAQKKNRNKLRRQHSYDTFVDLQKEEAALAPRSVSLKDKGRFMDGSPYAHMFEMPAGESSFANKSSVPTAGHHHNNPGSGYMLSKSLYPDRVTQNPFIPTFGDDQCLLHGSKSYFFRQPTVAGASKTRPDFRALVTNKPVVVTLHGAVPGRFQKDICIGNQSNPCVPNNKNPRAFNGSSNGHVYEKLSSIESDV
# Experiment Summary: NR2B rat cortical neuron calcium influx assay
# Condition Label: rat cortical neurons, glutamate and glycine stimulated calcium influx, 2 hours compound incubation
Each entry falls in a class defined on IC50; the bands are bin 0 = under 0.006 µM, bin 1 = from 0.006 µM up to 0.03 µM, bin 2 = 0.03 µM and over

Some solved cases for reference:
Oc1ccc(CCN2C[C@H]3C[C@H](Oc4ccc(F)cc4F)C[C@@]3(O)C2)nc1 [Example 19]: bin 1
Oc1ccc(C(O)CN2C[C@@H]3C[C@@H](Oc4ccccc4F)[C@@H](O)[C@]3(O)C2)nc1 (single isomer, unassigned) [Example 2C]: bin 2
Oc1c(F)cc([C@@H](O)CN2C[C@H]3C[C@H](Oc4ccccc4)C[C@@]3(O)C2)cc1F [Example 10C]: bin 1

Which bin, given its IC50, does Oc1ccc(C(O)CN2C[C@H]3C[C@H](Oc4ccccc4)[C@H](O)[C@@]3(O)C2)nc1Cl (single isomer, unassigned) [Example 4C] occupy?
bin 2

Where would Oc1ccc(C(O)CN2C[C@H]3C[C@H](Oc4ccccc4F)[C@H](O)[C@@]3(O)C2)nc1 (single isomer, unassigned) [Example 2B] land among the classes by reported IC50?
bin 0
